Origin of the recorded values: ChEMBL document CHEMBL1149584

The molecules listed here are annotated with their IC50.
# System: IGROV-1
# protocolNotes: Antiproliferative activity against human IGROV1 cells after 72 hrs
# Assay type: functional, cell-based
# experimentalConditions: IGROV-1, 72 h

| smilesNotation | IC50 / µM |
| --- | --- |
| COc1ccc(-c2ccc(/C=C/C(=O)O)cc2)cc1C12CC3CC(CC(C3)C1)C2 | 1.19 |
| COc1ccc(-c2ccc(/C=C(/Br)C(=O)O)cc2)cc1C12CC3CC(CC(C3)C1)C2 | 30.6 |
| O=C(O)C#Cc1ccc(-c2cc3c(c(C45CC6CC(CC(C6)C4)C5)c2)OCO3)cc1 | 3.6 |
| O=C(O)/C=C/c1ccc(-c2cc3c(c(C45CC6CC(CC(C6)C4)C5)c2)OCCO3)cc1 | 0.23 |
| O=C(O)/C=C/c1ccc(-c2cc(CO)c(O)c(C34CC5CC(CC(C5)C3)C4)c2)cc1 | 0.76 |
